For each entry below, report its pIC50 value.
- assay_target: Calmodulin-domain protein kinase 1 (Toxoplasma gondii)
- Sequence (Q9BJF5 whole entry): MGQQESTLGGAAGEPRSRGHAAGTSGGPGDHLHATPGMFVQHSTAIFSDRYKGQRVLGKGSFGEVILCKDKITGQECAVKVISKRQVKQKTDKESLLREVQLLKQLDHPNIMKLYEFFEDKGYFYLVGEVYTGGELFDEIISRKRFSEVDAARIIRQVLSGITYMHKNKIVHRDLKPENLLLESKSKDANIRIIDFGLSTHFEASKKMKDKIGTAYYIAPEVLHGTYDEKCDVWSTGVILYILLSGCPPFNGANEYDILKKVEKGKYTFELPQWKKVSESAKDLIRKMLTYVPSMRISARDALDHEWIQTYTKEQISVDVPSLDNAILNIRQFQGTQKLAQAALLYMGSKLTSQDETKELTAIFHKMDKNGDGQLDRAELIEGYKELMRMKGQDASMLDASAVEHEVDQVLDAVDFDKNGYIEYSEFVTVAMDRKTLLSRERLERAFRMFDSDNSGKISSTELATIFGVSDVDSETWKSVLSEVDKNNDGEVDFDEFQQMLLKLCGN
Just so you know, pIC50 here is -log10 of the concentration in molar units; reply with that number alone.

Q: Give pIC50 only, for `CCOc1ccc2cc(-c3nn(C(C)C)c(N)c3C(N)=O)ccc2n1` , using Calmodulin-domain protein kinase 1 (Toxoplasma gondii) data.
A: 8.19

Q: Give pIC50 only, for `CC(C)Oc1ccc2cc(-c3nn(C(C)(C)C)c(N)c3C(N)=O)cnc2c1` , using Calmodulin-domain protein kinase 1 (Toxoplasma gondii) data.
A: 7.80

Q: Give pIC50 only, for `CC(C)(C)n1nc(-c2ccc3nc(OC4CCC4)ccc3c2)c(C(N)=O)c1N` , using Calmodulin-domain protein kinase 1 (Toxoplasma gondii) data.
A: 7.92

Q: Give pIC50 only, for `CCOc1ccc2cc(-c3nn(C4CCCCCC4)c(N)c3C(N)=O)ccc2n1` , using Calmodulin-domain protein kinase 1 (Toxoplasma gondii) data.
A: 7.77

Q: Give pIC50 only, for `CC(C)(C)n1nc(-c2cnc3cc(OC4CCC4)ccc3c2)c(C(N)=O)c1N` , using Calmodulin-domain protein kinase 1 (Toxoplasma gondii) data.
A: 8.15

Q: Give pIC50 only, for `CCOc1ccc2cc(-c3nn(CC4CC4)c(N)c3C(N)=O)ccc2n1` , using Calmodulin-domain protein kinase 1 (Toxoplasma gondii) data.
A: 8.10

Q: Give pIC50 only, for CCOc1ccc2cc(-c3nn(C(C)CO)c(N)c3C(N)=O)cnc2c1 (configuration not stated) , using Calmodulin-domain protein kinase 1 (Toxoplasma gondii) data.
A: 7.59

Q: Give pIC50 only, for `CCOc1ccc2cc(-c3nn(CC4CC4)c(N)c3C(N)=O)cnc2c1` , using Calmodulin-domain protein kinase 1 (Toxoplasma gondii) data.
A: 7.82

Q: Give pIC50 only, for `CCOc1ccc2cc(-c3nn(CC(C)(C)O)c(N)c3C(N)=O)cnc2c1` , using Calmodulin-domain protein kinase 1 (Toxoplasma gondii) data.
A: 6.95

Q: Give pIC50 only, for `CCOc1ccc2cc(-c3nn(C4CCCCC4)c(N)c3C(N)=O)ccc2n1` , using Calmodulin-domain protein kinase 1 (Toxoplasma gondii) data.
A: 8.26

Q: Give pIC50 only, for `CC(C)(C)n1nc(-c2ccc3nc(OC4CC4)ccc3c2)c(C(N)=O)c1N` , using Calmodulin-domain protein kinase 1 (Toxoplasma gondii) data.
A: 8.34

Q: Give pIC50 only, for `CC(C)(C)n1nc(-c2cnc3cc(OC(F)(F)F)ccc3c2)c(C(N)=O)c1N` , using Calmodulin-domain protein kinase 1 (Toxoplasma gondii) data.
A: 7.41

Just for reference, ChEMBL document CHEMBL3769379 is where these values come from.
